Where these numbers come from: paper PMC4593394

- procedure-details: in vitro
- experimental-context: human
measure-name: IC50 at 48 h

Find the recorded IC50 at 48 h belonging to CC1=C(CO)C(=O)O[C@@H]([C@@H](C)[C@H]2CC[C@H]3[C@@H]4C[C@H]5O[C@]56[C@@H](O)[C@@H](O)CC(=O)[C@]6(C)[C@H]4CC[C@]23C)C1 [Compound 14, viscosalactone B] and report it.
> 100 µM

----------
- procedure-details: in vitro
- experimental-context: human
measure-name: IC50 at 48 h

Report IC50 at 48 h for `CC1=C(CO)C(=O)O[C@@H]([C@@H](C)[C@H]2CC[C@H]3[C@@H]4C[C@H]5O[C@]56[C@@H](O)[C@@H](O)CC(=O)[C@]6(C)[C@H]4CC[C@]23C)C1` please.
> 100 µM
